- Tested on: Transient receptor potential cation channel subfamily C member 4 (mouse)
- Protocol Text: TRPC4 modulation by TRPC6 hit compounds, confirmation, selectivity assay for TRPC6 modulator project, cell-based, HEK293 TRPC4/mu-opioid, membrane potential dye, mouse (AID 488927)
- Condition Notes: membrane potential fluorescence, at 10 µM
Some of the results follow. Active and inactive are the calls of the source.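 The calls were made as follows: active = membrane potential signal moved up or down beyond 5 SD of buffer control wells, in both duplicate plates, actives on both sides; inactive = the rest.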
Write down the outcome that applies. Available outcomes: 1 (yes) (active), 0 (no) (inactive)

A selection of reference data follows.
>>> print(df.to_string())
                                   compound  qualitative_label
0  CCC(C)NCCOCCOc1ccc(Br)cc1C (stereo unspecified)            1 (yes)
1  CCCN(CCc1ccccc1)C1CCc2c(O)cccc2C1 (stereo unspecified)            1 (yes)
2  O=C1CN(C(=O)c2ccccc2F)C(c2ccc(F)cc2)c2cc(F)ccc2N1 (stereo unspecified)            1 (yes)

Query: recorded result category for Cc1nn(Cc2ccc(C(=O)N3N=C(C(F)F)CC3(O)C(F)F)cc2)c(C)c1[N+](=O)[O-] (stereo unspecified) in this test 1 (yes)

Query: recorded result category for Cc1nc(C(=O)NCc2ccccc2)sc1C1(C)CC(c2cccnc2)=NO1 (stereo unspecified) in this test 0 (no)

Query: recorded result category for `COc1ccc(Cn2c(-c3ccc(Cl)cc3)c[n+]3ccccc23)cc1` in this test 1 (yes)

Query: recorded result category for `N=c1n(CCc2ccccc2)c2ccccc2n1Cc1ccccc1F` in this test 1 (yes)

Query: recorded result category for `CCCc1cc(=O)oc2c(C)c(O)c(CN3CCCCC3)cc12` in this test 0 (no)

Query: recorded result category for CN(C)c1cc(N)c2ccccc2n1 (tested in a mixture with another compound) in this test 1 (yes)

Query: recorded result category for `CCN1CCN(c2ccc([N+](=O)[O-])cc2C(=O)c2ccc(Cl)cc2)CC1` in this test 1 (yes)

Query: recorded result category for O=C(NC1C2CC3CC(C2)CC1C3)c1ccc(N2CCNCC2)c([N+](=O)[O-])c1 (stereo unspecified) in this test 1 (yes)
